Hey, just so you know, these numbers are from the supplement of paper PMC11732987.

# Tested on: EIF3H (UniProt O15372)
# Sequence (O15372 whole entry, the tested form may be a part): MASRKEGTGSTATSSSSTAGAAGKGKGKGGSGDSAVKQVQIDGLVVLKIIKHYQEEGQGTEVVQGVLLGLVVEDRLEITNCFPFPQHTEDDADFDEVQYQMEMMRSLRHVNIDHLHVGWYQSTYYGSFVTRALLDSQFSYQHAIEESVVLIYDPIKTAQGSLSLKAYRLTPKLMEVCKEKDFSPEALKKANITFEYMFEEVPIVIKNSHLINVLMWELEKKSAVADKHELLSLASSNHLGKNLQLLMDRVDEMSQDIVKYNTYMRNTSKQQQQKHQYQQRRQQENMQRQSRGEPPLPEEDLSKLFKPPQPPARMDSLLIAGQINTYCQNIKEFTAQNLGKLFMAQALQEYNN
# Assay: log2 ratio of Biotin-Ahx-Ub-VS probe labelling (fragment/DMSO); higher = less target engagement (more negative = stronger competition), active = hit call of the paper (q ≤ 0.05, log2 ratio ≤ -1)
# Test context: compound concentration: 200 uM; treatment time: 3 h
Observed property: log2 ratio of Biotin-Ahx-Ub-VS probe labelling
Respond using a number only.

Query: log2 ratio of Biotin-Ahx-Ub-VS probe labelling; subject: `O=C(CCl)N1CCN(C(=O)N2CCCCC2)CC1`
0.266

Look up log2 ratio of Biotin-Ahx-Ub-VS probe labelling for this compound: `Cc1cccc(NC(=O)[C@@H]2CCCN2C(=O)CCl)n1`
0.0856

Need log2 ratio of Biotin-Ahx-Ub-VS probe labelling, item O=C(CCl)N1CCOC(c2cccc(F)c2)C1 (centres undefined)
0.265

What value of log2 ratio of Biotin-Ahx-Ub-VS probe labelling has been recorded for this entry: `Cl.O=C(CCl)N1CC(c2ccc(Br)cn2)C1`
0.134

Any idea what its log2 ratio of Biotin-Ahx-Ub-VS probe labelling is? The compound is CN(CCC(O)c1ccc(Br)cc1)C(=O)CCl (centres undefined)
0.178

Form field: reported log2 ratio of Biotin-Ahx-Ub-VS probe labelling of `CNC(=O)C1(NC(=O)CCl)CCCCC1`
0.0858

For `Cc1cc(NC(=O)CCl)n(-c2ccccc2)n1` , what is its reported log2 ratio of Biotin-Ahx-Ub-VS probe labelling?
0.0602

I would be grateful if you could share the reported log2 ratio of Biotin-Ahx-Ub-VS probe labelling for `Cc1cccc2nc(CCNC(=O)CCl)cn12.Cl` .
-0.726

Give its log2 ratio of Biotin-Ahx-Ub-VS probe labelling value. Item: `O=C(CCl)Nc1cccc(C(=O)N2CCSCC2)c1`
0.0708

Name the recorded log2 ratio of Biotin-Ahx-Ub-VS probe labelling for `O=C(CCl)NCCc1cccc2ccccc12` .
0.236

Which log2 ratio of Biotin-Ahx-Ub-VS probe labelling value is on record for `O=C(CCl)NCCc1ccc(F)cc1` ?
0.194

# input compound: `Cc1ncc2c(n1)CCN(C(=O)CCl)C2` ; wanted: its log2 ratio of Biotin-Ahx-Ub-VS probe labelling
0.129

Data request, read-out log2 ratio of Biotin-Ahx-Ub-VS probe labelling, for CC1Cc2ccccc2N1C(=O)CCl (centres undefined)
0.0594

Entry under review: `CCN(Cc1ccc(C#N)cc1F)C(=O)CCl` . Reported log2 ratio of Biotin-Ahx-Ub-VS probe labelling?
0.0146

Need log2 ratio of Biotin-Ahx-Ub-VS probe labelling of `Cc1ccccc1C1(CNC(=O)CCl)CCOCC1` , thanks.
0.00175

Entry `O=C(CCl)Nc1nc(-c2cccs2)cs1` : reported log2 ratio of Biotin-Ahx-Ub-VS probe labelling = ?
0.216

I'd like to know its log2 ratio of Biotin-Ahx-Ub-VS probe labelling. The compound in question is O=C(CCl)N1CCN2C(=O)CCC2C1 (centres undefined)
-0.0249

Find the recorded log2 ratio of Biotin-Ahx-Ub-VS probe labelling belonging to `O=C(CCl)NCCc1ccc2c(c1)OCCO2` and report it.
0.186

May I ask what log2 ratio of Biotin-Ahx-Ub-VS probe labelling has been recorded for `O=C(CCl)N1CCOC2(CCC2)CC1` ?
0.0846

GET /values?readout=log2 ratio of Biotin-Ahx-Ub-VS probe labelling&item= `O=C(CCl)N1CCOC2(CCC2)C1`
0.226

Sample Cc1ccc(CC(NC(=O)CCl)c2ccccn2)cc1.Cl (centres undefined) — what was its log2 ratio of Biotin-Ahx-Ub-VS probe labelling?
0.165

Given `O=C(CCl)N1CCN(C(=O)Nc2ccccc2)CC1` , state its recorded log2 ratio of Biotin-Ahx-Ub-VS probe labelling.
0.232

Would you kindly share the measured log2 ratio of Biotin-Ahx-Ub-VS probe labelling for `CS(=O)(=O)N1CCCN(C(=O)CCl)CC1` ?
0.332

Which measured log2 ratio of Biotin-Ahx-Ub-VS probe labelling value corresponds to NC(=O)C1CCCCN1C(=O)CCl (centres undefined) ?
0.0122

Which log2 ratio of Biotin-Ahx-Ub-VS probe labelling is listed for `O=C(CCl)Nc1ccc(Cl)c(F)c1` ?
0.246

What measured log2 ratio of Biotin-Ahx-Ub-VS probe labelling goes with `O=C(CCl)NC1CCC2(CC1)OCCO2` ?
0.0155

Entry `Cl.O=C(CCl)NCc1cc2c(nc1O)CCCC2` has what log2 ratio of Biotin-Ahx-Ub-VS probe labelling?
0.0749

# input compound: CCC1c2ccsc2CCN1C(=O)CCl (centres undefined) ; wanted: its log2 ratio of Biotin-Ahx-Ub-VS probe labelling
0.089

log2 ratio of Biotin-Ahx-Ub-VS probe labelling for `N#Cc1cnn(-c2ccccc2)c1NC(=O)CCl` ?
0.233

---

Can you tell me log2 ratio of Biotin-Ahx-Ub-VS probe labelling for the items I'm about to list?
# Tested on: USP4 (UniProt Q13107)
# Sequence (Q13107 whole entry, the tested form may be a part): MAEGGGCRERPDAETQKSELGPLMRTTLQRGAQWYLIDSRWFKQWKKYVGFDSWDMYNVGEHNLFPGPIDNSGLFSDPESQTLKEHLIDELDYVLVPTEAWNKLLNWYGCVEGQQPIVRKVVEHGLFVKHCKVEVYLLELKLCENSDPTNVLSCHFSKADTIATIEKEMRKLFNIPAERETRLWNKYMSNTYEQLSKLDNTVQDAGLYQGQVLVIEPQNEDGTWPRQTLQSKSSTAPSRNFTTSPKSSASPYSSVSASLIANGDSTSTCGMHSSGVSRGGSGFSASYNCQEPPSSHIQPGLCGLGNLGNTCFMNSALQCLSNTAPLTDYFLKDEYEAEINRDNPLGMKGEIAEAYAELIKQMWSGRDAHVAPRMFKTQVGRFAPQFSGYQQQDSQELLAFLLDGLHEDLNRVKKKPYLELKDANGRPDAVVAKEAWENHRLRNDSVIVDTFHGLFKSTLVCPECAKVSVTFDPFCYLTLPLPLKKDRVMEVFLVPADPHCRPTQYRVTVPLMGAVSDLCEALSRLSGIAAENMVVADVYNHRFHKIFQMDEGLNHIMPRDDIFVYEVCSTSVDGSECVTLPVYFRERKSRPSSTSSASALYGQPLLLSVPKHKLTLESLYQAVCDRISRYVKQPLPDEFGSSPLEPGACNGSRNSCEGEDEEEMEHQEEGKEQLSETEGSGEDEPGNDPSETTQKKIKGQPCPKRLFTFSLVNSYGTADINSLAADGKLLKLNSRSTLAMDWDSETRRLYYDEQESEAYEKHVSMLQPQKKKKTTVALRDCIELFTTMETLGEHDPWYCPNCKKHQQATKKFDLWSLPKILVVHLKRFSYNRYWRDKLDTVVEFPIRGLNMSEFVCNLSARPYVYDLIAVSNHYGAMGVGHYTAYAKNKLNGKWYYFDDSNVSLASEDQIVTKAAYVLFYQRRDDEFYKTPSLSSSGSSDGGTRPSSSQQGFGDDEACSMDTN
# Assay: log2 ratio of Biotin-Ahx-Ub-VS probe labelling (fragment/DMSO); higher = less target engagement (more negative = stronger competition), active = hit call of the paper (q ≤ 0.05, log2 ratio ≤ -1)
# Test context: compound concentration: 200 uM; treatment time: 3 h
Could you keep your reply to the number by itself?

Data request, read-out log2 ratio of Biotin-Ahx-Ub-VS probe labelling, for `O=C(CCl)N(C1=CCCCC1)C1CC1`
0.0249

Which log2 ratio of Biotin-Ahx-Ub-VS probe labelling value is on record for `O=C(CCl)Nc1cccc(NC(=O)c2ccccc2)c1` ?
0.199

Consider the compound `Cc1cccn2cc(CCNC(=O)CCl)nc12.Cl` and give its measured log2 ratio of Biotin-Ahx-Ub-VS probe labelling.
-0.12

Would you mind telling me what log2 ratio of Biotin-Ahx-Ub-VS probe labelling value was observed for `CN(CCc1ncc(Br)cn1)C(=O)CCl.Cl` ?
-0.0898

// query log2 ratio of Biotin-Ahx-Ub-VS probe labelling value for entry `Cl.O=C(CCl)N1CCn2cncc2C1`
-0.285

Item under review: Cl.Cn1ncc2c1CC(NC(=O)CCl)CC2 (centres undefined) . Reported log2 ratio of Biotin-Ahx-Ub-VS probe labelling?
0.0879

# input compound: COc1ccc(C2CCCN2C(=O)CCl)c(OC)c1 (centres undefined) ; wanted: its log2 ratio of Biotin-Ahx-Ub-VS probe labelling
-0.347

Form field: reported log2 ratio of Biotin-Ahx-Ub-VS probe labelling of `O=C(CCl)N1CCc2sccc2C1`
-0.861

What value of log2 ratio of Biotin-Ahx-Ub-VS probe labelling has been recorded for this entry: `Cc1ccccc1CN(C)C(=O)CCl`
-0.831

Dear colleague, I am looking for the recorded log2 ratio of Biotin-Ahx-Ub-VS probe labelling of the following compound: `C#Cc1cccc(NC(=O)CCl)c1`
0.0482

# lookup: log2 ratio of Biotin-Ahx-Ub-VS probe labelling of `Cc1noc(N2CCN(C(=O)CCl)CC2)n1.Cl`
0.0534

Could you tell me which log2 ratio of Biotin-Ahx-Ub-VS probe labelling is on file for CC(NC(=O)CCl)c1cc2n(n1)CCCC2.Cl (centres undefined) ?
-0.121

// log2 ratio of Biotin-Ahx-Ub-VS probe labelling lookup, key: `Cc1ccc(N(CCC#N)C(=O)CCl)cc1C`
0.0498

Any idea what log2 ratio of Biotin-Ahx-Ub-VS probe labelling was measured for `O=C(CCl)Nc1ccc(F)cc1F` ?
-0.0254

---

# Tested on: OTUD7B (UniProt Q6GQQ9)
# Sequence (whole entry): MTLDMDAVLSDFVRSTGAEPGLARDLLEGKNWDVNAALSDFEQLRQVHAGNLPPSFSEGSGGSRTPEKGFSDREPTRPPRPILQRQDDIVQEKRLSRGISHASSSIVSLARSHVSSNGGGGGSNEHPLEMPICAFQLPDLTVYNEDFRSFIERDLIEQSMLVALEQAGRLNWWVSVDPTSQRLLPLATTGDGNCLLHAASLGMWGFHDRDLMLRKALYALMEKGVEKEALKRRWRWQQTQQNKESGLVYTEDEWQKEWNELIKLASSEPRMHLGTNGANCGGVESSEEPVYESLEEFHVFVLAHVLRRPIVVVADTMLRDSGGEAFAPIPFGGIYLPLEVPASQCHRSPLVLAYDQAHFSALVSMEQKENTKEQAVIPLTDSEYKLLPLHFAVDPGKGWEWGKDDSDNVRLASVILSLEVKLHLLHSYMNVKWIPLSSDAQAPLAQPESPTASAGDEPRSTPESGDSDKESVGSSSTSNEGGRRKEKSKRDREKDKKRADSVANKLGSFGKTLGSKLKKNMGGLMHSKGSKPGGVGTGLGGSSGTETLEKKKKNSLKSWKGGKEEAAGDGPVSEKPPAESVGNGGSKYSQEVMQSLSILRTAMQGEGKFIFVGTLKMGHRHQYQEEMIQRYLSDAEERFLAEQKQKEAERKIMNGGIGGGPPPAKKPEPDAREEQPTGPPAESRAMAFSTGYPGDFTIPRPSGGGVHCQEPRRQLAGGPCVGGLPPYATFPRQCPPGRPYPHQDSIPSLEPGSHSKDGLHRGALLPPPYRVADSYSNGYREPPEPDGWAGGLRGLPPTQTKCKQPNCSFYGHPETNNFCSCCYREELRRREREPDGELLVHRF
# Assay: log2 ratio of Biotin-Ahx-Ub-VS probe labelling (fragment/DMSO); higher = less target engagement (more negative = stronger competition), active = hit call of the paper (q ≤ 0.05, log2 ratio ≤ -1)
# Test context: compound concentration: 200 uM; treatment time: 3 h
Observed property: log2 ratio of Biotin-Ahx-Ub-VS probe labelling
# answer = number (no unit)

Requested field: log2 ratio of Biotin-Ahx-Ub-VS probe labelling. Item: `Cc1cccc(N(CCC#N)C(=O)CCl)c1C`
-1.2

Sample `O=C(CCl)Nc1nc(-c2cccs2)cs1` — what was its log2 ratio of Biotin-Ahx-Ub-VS probe labelling?
-0.695

# get_value(readout='log2 ratio of Biotin-Ahx-Ub-VS probe labelling', item= `O=C(CCl)N(Cc1ccsc1)C1CC1` )
-0.317

# query: log2 ratio of Biotin-Ahx-Ub-VS probe labelling of entry `O=C(CCl)Nc1ccc(Cl)c(F)c1`
-1.15

Reported log2 ratio of Biotin-Ahx-Ub-VS probe labelling, compound `Cl.Cn1cnc2cc(CNC(=O)CCl)ccc21` : ____
-0.399

GET /values?readout=log2 ratio of Biotin-Ahx-Ub-VS probe labelling&item= Cc1ccc(CC(CO)CNC(=O)CCl)cc1 (centres undefined)
-1.12

Reported log2 ratio of Biotin-Ahx-Ub-VS probe labelling for CC(O)CC1CCN(C(=O)CCl)CC1 (centres undefined) : what is it?
-0.302

Reported log2 ratio of Biotin-Ahx-Ub-VS probe labelling, compound `Cc1ccccc1C1(CNC(=O)CCl)CCOCC1` : ____
-0.293

Please give the measured log2 ratio of Biotin-Ahx-Ub-VS probe labelling for this compound: Cc1cc(CC(C)NC(=O)CCl)n[nH]1 (centres undefined)
-0.54

Give its log2 ratio of Biotin-Ahx-Ub-VS probe labelling value. Item: `O=C(CCl)NCc1noc(C2CC2)n1`
-0.572

Endpoint output: log2 ratio of Biotin-Ahx-Ub-VS probe labelling of `O=C(CCl)NCc1ccc(Cl)cc1` . Value?
-0.726

Give its log2 ratio of Biotin-Ahx-Ub-VS probe labelling value. Item: O=C(CCl)NC1CCS(=O)(=O)c2ccccc21 (centres undefined)
-1.79

So what's the measured log2 ratio of Biotin-Ahx-Ub-VS probe labelling for this one? `O=C(CCl)Nc1ccc2c(c1)OC(F)(F)O2`
-0.873

Any idea what log2 ratio of Biotin-Ahx-Ub-VS probe labelling was measured for `Cc1nc(CN2CCCN(C(=O)CCl)CC2)no1.Cl` ?
0.0504
